experiment: Tissue binding assay (equilibrium dialysis), brain homogenate; type: in vitro ADME; conditions: mouse brain homogenate, dialysis 4 hours at 37° C., pH 7.4
Please go through the items and note down their fraction unbound at 4 h.
Hey, just send me the number, nothing else.

Given `O=C(N[C@H]1CC[C@H](N2CC[C@H](F)C2)CC1)c1nc(-n2ccnc2)nn2cccc12` , state its recorded fraction unbound at 4 h.
0.056

Field request: fraction unbound at 4 h | item: `O=C(N[C@H]1CC[C@H](NCC(F)(F)F)CC1)c1nc(-n2ccnc2)nn2cccc12`
0.064

What value of fraction unbound at 4 h has been recorded for this entry: `O=C(N[C@H]1CC[C@H](N2CCC(F)(F)C2)CC1)c1nc(-n2ccnc2)nn2cccc12`
0.068
